# tested-system: TRKA (Homo sapiens (Human))
# Sequence (P04629 441-796): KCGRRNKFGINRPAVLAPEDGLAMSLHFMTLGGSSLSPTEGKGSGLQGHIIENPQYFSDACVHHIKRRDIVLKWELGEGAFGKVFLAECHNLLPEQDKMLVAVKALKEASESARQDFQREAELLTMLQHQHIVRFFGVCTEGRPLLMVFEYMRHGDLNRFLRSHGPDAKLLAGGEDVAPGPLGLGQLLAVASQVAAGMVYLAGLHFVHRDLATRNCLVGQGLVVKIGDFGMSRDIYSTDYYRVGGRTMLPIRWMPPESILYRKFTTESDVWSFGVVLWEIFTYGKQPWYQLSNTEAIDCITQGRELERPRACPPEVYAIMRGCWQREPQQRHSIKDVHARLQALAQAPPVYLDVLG
# procedure-details: Isolated TRK enzyme assay (HTRF KinEASE-TK), TRKA
# Format: biochemical
# run-conditions: read-out: Trka enzyme (IC50)
pIC50: −log10 of the molar value.
observed-property: pIC50

# annotated cases, reported pIC50 shown
Cc1[nH]c2ccccc2c1CC(=O)Nc1cncc(C(=O)c2cn(C(C)C)c3ncncc23)c1: 6.99
COCC(C)(C)n1cc(C(=O)c2cncc(NC(=O)Cn3ccc(C4CC4)n3)c2)c2cncnc21: 8.82
CC(C)(CO)n1cc(C(=O)c2cncc(NC(=O)Cc3ncc(Cl)cc3F)c2)c2cnc(N)nc21: 5.79
CC(C)n1cc(C(=O)c2cncc(NC(=O)c3ncncc3Br)c2)c2cncnc21: 5.76
Cc1ccc(CC(=O)Nc2cncc(C(=O)c3cn(C)c4ncncc34)c2)c(C)c1: 6.56

(I) Cn1cc(C(=O)c2cncc(NC(=O)Cc3ccc(Cl)cc3)c2)c2cncnc21
(II) Cc1n[nH]c2ncc(C(=O)Nc3cncc(C(=O)c4cn(C(C)C)c5ncncc45)c3)cc12
// which entry has the larger pIC50 value, I or II ? Use the label to indicate which entry you chose.
I
(I: 6.73, II: 6.19)
